Property: RP-LC retention time; scope: individual compounds
Test: gradient 5% acetonitrile 3 min, to 50% in 2 min, to 85% in 15 min, held 3 min, 100 µL/min
Conditions: column: Zorbax Extend-C18 2.1 x 50 mm; eluents: water / acetonitrile, 0.1% formic acid
Write it as a number; the unit s goes unstated.

Compound	RP-LC retention time / s
COc1ccc(CN2CC[C@]3(CO)CN(Cc4ccccc4)C[C@@H]3C2)c(Cl)c1OC	579
COc1ccc(C(=O)N(CN2CCCC2=O)c2nccs2)cc1OC	647
Cc1nn(-c2ccccc2)c2c1N(CCCC(=O)NC1CC1)C(=O)CS2	780
Cc1ccc(C2Cn3cnc(C(=O)N4CCC(C(=O)NC5CCCCC5)CC4)c3CO2)cc1 (centres undefined)	794
Cc1ccc(CN2CCN(CC(=O)Nc3cc(C)cc(C)c3)C(=O)C2=O)cc1	838

[in] Which RP-LC retention time value belongs to CCN(CC)S(=O)(=O)c1ccc2c(c1)N(CC(=O)NCc1ccccc1)C(=O)C1CCCCN21 (centres undefined) ?
[out] 945

[in] Need RP-LC retention time of Cc1ccn2cc(-c3ccc(NC(=O)CCC4CCCCC4)cc3)nc2n1 , thanks.
[out] 761

[in] Please give the measured RP-LC retention time for this compound: O=C(Nc1ccccc1)C1CCCN(S(=O)(=O)c2cc(-c3noc(C4CCC4)n3)cs2)C1 (centres undefined)
[out] 1140

[in] Using the record for Cc1ccc(NC(=O)Cn2c(=O)nc(N3CCCC(C)C3)c3ccccc32)cc1C (centres undefined) , report its RP-LC retention time.
[out] 895

----------
Assay: gradient 5% acetonitrile 3 min, to 50% in 2 min, to 85% in 15 min, held 3 min, 100 µL/min
Details: column: Zorbax Extend-C18 2.1 x 50 mm; eluents: water / acetonitrile, 0.1% formic acid
Measured endpoint: RP-LC retention time (s)
Record the value in s, omitting the unit from your answer.

Molecule	RP-LC retention time (s)
COc1cccc(-n2c(N3CCCC(C(=O)NCc4ccc(C)o4)C3)nc3ccsc3c2=O)c1 (centres undefined)	849
CCOc1ccc(C(=O)N2C[C@@H]3C[C@H]2C[C@@H]3NC(=O)c2ccccc2)cc1	757
Cc1cc(N2CCN(C)CC2)nc2ccc(NC(=S)N3CCC(C)CC3)cc12	604
O=S(=O)(c1ccc(Cl)cc1)c1nc(-c2ccco2)oc1NCCCn1ccnc1	597
Cc1ccc(N2CCC(NC(=O)Nc3ccccc3C)C2=O)cc1C (centres undefined)	875

[in] Quick one: RP-LC retention time for CCC(=O)N1CCc2cc(C(=O)NC)ccc21 ?
[out] 626

[in] Need RP-LC retention time, item Cc1ccc(-c2noc(C3CC(=O)N(c4ccc5c(c4)OCO5)C3)n2)cc1 (centres undefined)
[out] 955

----------
Experiment: gradient 5% acetonitrile 3 min, to 50% in 2 min, to 85% in 15 min, held 3 min, 100 µL/min
Details: column: Zorbax Extend-C18 2.1 x 50 mm; eluents: water / acetonitrile, 0.1% formic acid
Hi, to clarify the labels: t covers RP-LC retention time from 800 s upward, f covers anything below 800 s.

Worked examples, 8 molecules total:
Molecule	Discrete label
O=C(c1nnc(-c2ccc(S(=O)(=O)N3CCOCC3)cc2)o1)N1CCCC1	f
Cc1ccc(NC(=O)NCC2CCOCC2)cc1C	f
CCOc1ccc(C(O)Cn2ccn3nc(-c4ccccc4C)cc3c2=O)cc1 (stereo not given)	t
CC1=C(C(=O)N(CC(=O)NCc2ccccc2)c2ccc(Cl)cc2)SCCO1	t
COc1ccc(F)cc1S(=O)(=O)N1CCC2(CCC(CN3CCN(C)CC3)O2)CC1 (stereo not given)	f
CSc1ccc(-c2noc(Cc3nnc(-c4ccc(C)c(C)c4)o3)n2)cc1	t
Cc1ccc(C#CC(C)(O)C(C)(C)C)cn1 (stereo not given)	f
COc1cccc(CNC(=O)C2(C)CCCN(S(=O)(=O)c3ccc(F)cc3F)C2)c1 (stereo not given)	t

Let's switch to this molecule now.
[in] Please check the record Cc1cc(N2CCN(C(=O)c3cccc(N(C)C)c3)CC2)nc2nnc(C)n12 and state if its RP-LC retention time is at or above 800 s.
[out] f

Cited source for all entries: the METLIN SMRT retention time set (Domingo-Almenara et al. 2019)
